Biological target: human A2B receptors (Homo sapiens, UniProt P29275)
Sequence (P29275 whole entry): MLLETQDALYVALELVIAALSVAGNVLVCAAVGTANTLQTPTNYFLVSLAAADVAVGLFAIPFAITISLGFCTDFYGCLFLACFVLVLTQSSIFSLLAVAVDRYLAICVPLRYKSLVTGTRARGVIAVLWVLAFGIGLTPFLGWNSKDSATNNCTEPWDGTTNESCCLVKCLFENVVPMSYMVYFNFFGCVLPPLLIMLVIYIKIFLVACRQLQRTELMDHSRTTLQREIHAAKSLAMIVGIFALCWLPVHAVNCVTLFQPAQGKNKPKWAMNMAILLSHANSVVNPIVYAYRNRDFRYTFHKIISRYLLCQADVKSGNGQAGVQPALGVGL
Experiment: Inhibition of human A2B receptor in recombinant HEK293 cells, cAMP quantification (HTRF)
Details: read-out: A2B (Category)
reported_property: IC50

O=C(c1cc2c(cn1)c(Nc1cncs1)nn2CC(F)(F)F)N1CCCOCC1    < 100 nM

Would you kindly share the measured IC50 for COc1ccc(Nc2nn(CC(F)(F)F)c3cc(C(=O)N4CCCOCC4)ncc23)nc1 ? < 100 nM

Also, O=C(c1cc2c(cn1)c(Nc1ccccc1)nn2CC(F)(F)F)N1CCCOCC1 please. < 1000 nM

Also, Cc1ccnc(Nc2nn(CC(F)(F)F)c3cc(C(=O)N4CCCOCC4)ncc23)c1 please. < 1000 nM

The measurements presented in this section are drawn from patent US12194051B2.
